System: HEPG2 cell line
Measurement type: EC50 (µM)
Provide the reading as a plain figure in µM.

Test system HEPG2 cell line; read-out EC50; what value for CC(=O)N1CCc2cc(NC(=O)Nc3cccc4cccnc34)ccc21 [C2] ?
10.3
